Tested on: Hep G2 cells
Assay type: cell-based, human
Settings: 24 h
pIC50: −log10 of the molar value. Where no end group is shown, it is not given here.
reported.property: pIC50

biosequence | target.or.test.system | quantitative.readout
FFGSLLSLGSKLLPSVFKLFQRKKE [Lpep3] | Hep G2 cells | 5.16

----------
System: CT26.WT cells
Format: cell-based
Conditions: 24 h
Where no end group is shown, it is not given here.
reported.property: IC50 (nM)

biosequence | target.or.test.system | quantitative.readout
FFGSLLSLGSKLLPSVFKLFQRKKE [Lpep3] | CT26.WT cells | 2000

----------
Test system: HL-60 cells
Format: cell-based, human
Details: 24 h
pIC50: −log10 of the molar value. Where no end group is shown, it is not given here.

biosequence | pIC50
FFGSLLSLGSKLLPSVFKLFQRKKE [Lpep3] | 5.83

----------
Test system: L1210 cells
Conditions: 24 h
Where no end group is shown, it is not given here.
reported.property: IC50

biosequence | reported.property | result
FFGSLLSLGSKLLPSVFKLFQRKKE [Lpep3] | IC50 | 2050 nM

----------
System: A375 cells
Assay type: cell-based, human
Conditions: 24 h
pIC50: −log10 of the molar value. Where no end group is shown, it is not given here.
reported.property: pIC50

biosequence | target.or.test.system | quantitative.readout
FFGSLLSLGSKLLPSVFKLFQRKKE [Lpep3] | A375 cells | 5.65

----------
Test system: MV-4-11 cells
Assay type: cell-based, human
Details: 24 h
Where no end group is shown, it is not given here.

biosequence | IC50
FFGSLLSLGSKLLPSVFKLFQRKKE [Lpep3] | 0.6 µM

----------
Test system: B16-F10 cells
Assay type: cell-based
Conditions: 24 h
Where no end group is shown, it is not given here.

biosequence | target.or.test.system | IC50
FFGSLLSLGSKLLPSVFKLFQRKKE [Lpep3] | B16-F10 cells | 11.8 µM
